Hey, just so you know, these numbers are from PubChem BioAssay AID1159580.

assay: chemical genetic growth profiling, strain panel (AID 1159580);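 also: tested at 20 µM; growth read once vehicle control cultures reached saturation at 30 °C; 1 = growth at the plate median or of vehicle wells; lower values mean less growth of the strain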; details: S. cerevisiae deletion strains, growth OD, locus YAL021C, strain ccr4, hits give low values
About 2,000 (36%) of roughly 5,500 compounds were called active. Not shown: some 18% with an inconclusive outcome. This is one part of the list. Where a SMILES comes first, the peptide text is derived from it. Bridges are numbered along the chain shown (N, C = ends). [ ]: non-standard residue; d: D form. The star is where a group is joined. ξ: configuration not given here. ξDab(CH2SO3H) = NC(CCNCS(=O)(=O)O)C(=O)O; Heptanoyl(6-Me) = CC(C)CCCCC(=O)*; Dab = NCC[CH](N)C(=O)O
measuredParameter: normalized growth
Just the number, please, no unit after it.

compound COC(=O)C[C@H]1C(C)(C)C2(O)OC34CC2C(=O)[C@]1(C)C3CC[C@]1(C)C4=CC(=O)O[C@H]1c1ccoc1 (some centres undefined) , normalized growth observed: 0.99

Lab note: measured normalized growth of CCC(C)C1NC(=O)C(CCNCS(=O)(=O)O)NC(=O)C(NC(=O)C(CCNCS(=O)(=O)O)NC(=O)C(NC(=O)C(CCNCS(=O)(=O)O)NC(=O)CCCCC(C)C)C(C)O)CCNC(=O)C(C(C)O)NC(=O)C(CCNCS(=O)(=O)O)NC(=O)C(CCNCS(=O)(=O)O)NC(=O)C(C(C)CC)NC1=O (centres undefined) ({Heptanoyl(6-Me)}-[ξDab(CH2SO3H)]T[ξDab(CH2SO3H)][Dab][ξDab(CH2SO3H)]II[ξDab(CH2SO3H)][ξDab(CH2SO3H)]T; lactam 4-C; configuration not given here) was 0.93

Noted for COC(=O)Nc1nc2ccc(C(=O)c3ccccc3)cc2[nH]1 : its normalized growth reads 0.95

normalized growth recorded for this compound, CC1(C)CC[C@]2(C(=O)O)CC[C@]3(C)C(=CCC4[C@@]5(C)CC[C@H](O)[C@@](C)(CO)C5CC[C@]43C)C2C1 (some centres undefined) , is 1

----------
test: chemical genetic growth profiling, strain panel (AID 1159580);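 also: tested at 20 µM; growth read once vehicle control cultures reached saturation at 30 °C; 1 = growth at the plate median or of vehicle wells; lower values mean less growth of the strain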; settings: S. cerevisiae deletion strains, growth OD, locus YJL187C, strain SWE1 (second series), hits give low values
The campaign covered roughly 5,500 compounds. About 2,000 (36%) were called active. Not shown: some 18% with an inconclusive outcome. Some of the results follow.
For each record, write down the corresponding normalized growth.
Answer field: number only, no words.

// sample CC1C(=O)OC2C1CCC1(C)C=CC(=O)C3(C)OC213 (configuration not stated) , its normalized growth was 1.01

Cc1ccnc(NS(=O)(=O)c2ccc(N)cc2)n1 yielded normalized growth of 1.01

Record Cc1ccc(-c2cc(C(F)(F)F)nn2-c2ccc(S(N)(=O)=O)cc2)cc1 , field normalized growth: 1.03

Briefly, normalized growth measured for CC(C)(C#N)O[C@@H]1O[C@H](CO)[C@@H](O)[C@H](O)[C@H]1O : 1.03

Entry under test: O=C(COc1ccc(Cl)cc1)N1CCN(Cc2ccc3c(c2)OCO3)CC1 . Its normalized growth was 0.932

OC(CCN1CCCCC1)(c1ccccc1)C1CCCCC1 (configuration not stated) yielded normalized growth of 1.01

So for O=C(O)/C=C1\CCCc2ccccc2C1O (configuration not stated) , the logged normalized growth turned out to be 0.99

----------
experiment: chemical genetic growth profiling, strain panel (AID 1159580);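 also: tested at 20 µM; growth read once vehicle control cultures reached saturation at 30 °C; 1 = growth at the plate median or of vehicle wells; lower values mean less growth of the strain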; details: S. cerevisiae deletion strains, growth OD, locus YKL085W, strain MDH1 (second series), hits give low values
About 2,000 (36%) of roughly 5,500 compounds were called active. Not shown: some 18% with an inconclusive outcome. The list shows a part of the results.
Exercise: state measured normalized growth for each of the compounds provided.
// keep it numeric: no unit symbol after the value

Entry COC1=C[C@@H]2[C@@H]3Cc4ccc(OC)c(O)c4[C@]2(CCN3C)CC1=O ; normalized growth = 0.979

Please fill in: normalized growth reported for Cc1cn([C@H]2C[C@H](N=[N+]=[N-])[C@@H](CO)O2)c(=O)[nH]c1=O = 1.01

Entry O=C(O)/C=C1\CCCc2ccccc2C1O (configuration not stated) ; normalized growth = 0.98

Record COc1cc(C(=O)O[C@H]2CC[C@@]3(C)[C@@H]4CC[C@H]5[C@]6(O)C[C@H](O)[C@@]7(O)[C@@H](CN8C[C@@H](C)CC[C@H]8[C@@]7(C)O)[C@]6(O)C[C@@]53O[C@]24O)cc(OC)c1OC , field normalized growth: 1

Note to self: normalized growth recorded for CC(C)(Oc1ccc(CCNC(=O)c2ccc(Cl)cc2)cc1)C(=O)O was 1.03

The recorded normalized growth for Nc1c2ccccc2nc2ccccc12 (tested in a mixture with another compound) is 0.899

The compound listed as C#C[C@]1(O)CCC2C3CCC4=CC(=O)CC[C@@H]4C3CC[C@@]21CC (some centres not stated) has a reported normalized growth of 0.988

The reported value for C#C[C@]1(O)CCC2C3CCC4=CC(=O)CC[C@@H]4C3CC[C@@]21C (some centres not stated) in terms of normalized growth is 0.986

Briefly, normalized growth measured for COC(=O)C[C@H]1C(C)(C)C2(O)OC34CC2C(=O)[C@]1(C)C3CC[C@]1(C)C4=CC(=O)O[C@H]1c1ccoc1 (some centres not stated) : 1.02

The recorded normalized growth for Nc1c2c(nc3ccccc13)CCCC2 is 1.01

The recorded normalized growth for Cc1ccnc(NS(=O)(=O)c2ccc(N)cc2)n1 is 1.01

The compound listed as CC(C)(C#N)O[C@@H]1O[C@H](CO)[C@@H](O)[C@H](O)[C@H]1O has a reported normalized growth of 1.01

# compound COc1ccc2c3c([nH]c2c1)C(C)=NCC3 ; its normalized growth = 0.996

Just so you know, measured normalized growth for C#C[C@]1(OC(C)=O)CCC2C3CCC4=CC(=O)CC[C@@H]4C3CC[C@@]21C (some centres not stated) came out at 0.967

Briefly, normalized growth measured for Cc1ccc(S(=O)(=O)NC(=O)NN2CC3CCCC3C2)cc1 (configuration not stated) : 1.04

Entry C[C@]12CCC(=O)C=C1CCC1C2[C@@H](O)C[C@@]2(C)C1CC[C@]2(O)C(=O)CO (some centres not stated) — recorded normalized growth = 0.998

Value of measured normalized growth for the entry Clc1ccccc1C(c1ccccc1)(c1ccccc1)n1ccnc1 : 0.0744

Record COC(=O)C[C@H]1C(C)(C)C(=O)[C@@H]2CC3C4=CC(=O)O[C@@H](c5ccoc5)[C@]4(C)CCC3[C@@]1(C)C2=O (some centres not stated) . Reported normalized growth: 0.986

Record summary for OC(CCN1CCCCC1)(c1ccccc1)C1CCCCC1 (configuration not stated) : reported normalized growth = 0.998

Kindly note the recorded normalized growth for C#C[C@]1(O)CCC2C3CCC4=C(CCC(=O)C4)C3CC[C@@]21C (some centres not stated) , which is 1.01

Just so you know, measured normalized growth for C/C=C(/C)C(=O)OC1CCC2(C)C3CCC4C5(O)CC(O)C6(O)C(CN7CC(C)CCC7C6(C)O)C5(O)CC42OC13O (configuration not stated) came out at 0.948

The recorded normalized growth for CCCOc1ccccc1-c1nc2n[nH]nc2c(=O)[nH]1 is 1

Recorded result, CCCCCCCCCCCC[C@H](C(=O)O)[C@@H](C)C(=O)O , normalized growth: 0.975

For CC1(C)CC[C@]2(C)CC[C@]3(C)C(=CCC4[C@@]5(C)CC[C@H](O)C(C)(C)C5CC[C@]43C)C2C1 (some centres not stated) the compound record lists normalized growth as 0.999

Lookup result for COc1c(CC(=O)c2cc3c(cc2O)OC(C)(C)C(O)C3)ccc2c1C=CC(C)(C)O2 (configuration not stated) ; measured normalized growth: 0.998

Value of normalized growth reported for the compound CC(=O)NC(C(=O)O)C(C)(C)SN=O (configuration not stated) is 0.987

For this compound ( COc1cc(N)c(Cl)cc1C(=O)NC1CCN(Cc2ccccc2)CC1 ), measured normalized growth is 0.995

----------
Hi there, I'd appreciate the recorded normalized growth for every entry that follows.
experiment: chemical genetic growth profiling, strain panel (AID 1159580);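 also: tested at 20 µM; growth read once vehicle control cultures reached saturation at 30 °C; 1 = growth at the plate median or of vehicle wells; lower values mean less growth of the strain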; conditions: S. cerevisiae deletion strains, growth OD, locus YMR263W, strain SAP30, hits give low values
Out of some 5,500 compounds screened, about 2,000 (36%) were called active. Inconclusive results (about 18%) are left out. The list shows a part of the results.
Give only the figure.

Reported normalized growth for CC(C)(C)c1ccc(-c2n[nH]c(=S)n2-c2cccc(C(F)(F)F)c2)cc1 was 1

The compound listed as CC12CCC3C4CCC(=O)C=C4CCC3C1CCC2=O (stereo not drawn) shows normalized growth equal to 0.999

Form: compound = O=C1CC(CSc2ccc(Cl)cc2)=NN1 ; normalized growth = 0.978

normalized growth measured on CC(=O)O[C@@H]1CC[C@@]2(C)C(CC[C@]3(C)C2CC=C2C4CC(C)(C)CC[C@]4(C(=O)O)CC[C@]23C)C1(C)C (stereo partly drawn) = 0.985

// recorded normalized growth for Cc1cccc(NC(=S)NCc2ccncc2)c1 : 0.981

Looking up O=C(O)CSCC(=O)NC1CCN(Cc2ccccc2)CC1 , I see its normalized growth listed as 0.998

What the record says about CC(C)=CCCC1(C)C=Cc2c(O)c3c(c(CC=C(C)C)c2O1)OC12C(=CC4CC1C(C)(C)OC2(C/C=C(\C)C(N)=O)C4=O)C3=O (stereo not drawn) : normalized growth is 0.968

Given item Cc1nn(C)c(C)c1NS(=O)(=O)c1cc(Cl)sc1Cl , the value recorded as its normalized growth is 0.914

In plain terms, CC1=C[C@@H]2c3cccc4[nH]cc(c34)C[C@H]2N(C)C1 has a documented normalized growth of 0.996

The compound listed as CC(C)(C)OC(=O)C(C)(C)S(=O)(=O)c1ccc(Cl)cc1 has a reported normalized growth of 0.992

Record C[C@]12CCC(=O)C=C1CCC1C2[C@@H](O)C[C@@]2(C)C1CC[C@]2(O)C(=O)CO (stereo partly drawn) . Reported normalized growth: 1.02

Documented normalized growth of O=C(N/N=C\c1c(O)ccc2ccccc12)N/N=C\c1c(O)ccc2ccccc12 : 0.928

The reported value for CCOP(=S)(OCC)Oc1cc(C)nc(C(C)C)n1 in terms of normalized growth is 0.98

The measured normalized growth associated with CCCc1nc(-c2ccccn2)[nH]c(=O)c1CC1CC1 reads 0.889

According to the records, this compound COC1=C[C@@H]2[C@@H]3Cc4ccc(OC)c(O)c4[C@]2(CCN3C)CC1=O displays normalized growth of 0.962

Entry N[C@H](C(=O)O)[C@@H]1CC(Cl)=NO1 — recorded normalized growth = 0.619

Lookup result for N=C(N)c1ccc(OCCCCCOc2ccc(C(=N)N)cc2)cc1 ; measured normalized growth: 0.93

Reported normalized growth ( O=[N+]([O-])c1cnc(Sc2n[nH]c(-c3cccs3)n2)s1 ) = 0.194

Looking up S=C(NCc1ccccc1)Nc1ccc(Cl)c(Cl)c1 , I see its normalized growth listed as 0.846

CSC(=CC(=O)c1ccc(Cl)cc1)SC has a reported normalized growth of 0.874

The value of normalized growth measured for the compound CC(C)=CCCC1(C)C=Cc2c(O)c3c(c(CC=C(C)C)c2O1)OC12C(=CC4CC1C(C)(C)OC2(C/C=C(/C)C(=O)O)C4O)C3=O (stereo not drawn) turned out to be 0.971

Query CC(=O)/C=C\[C@@H]1[C@@]2(C)CCCC(C)(C)C2CC[C@@]1(C)O (stereo partly drawn) yields normalized growth of 0.947

// recorded normalized growth for O=[N+]([O-])c1ccccc1SCc1n[nH]c(=S)n1-c1cccc(C(F)(F)F)c1 : 1

get_value(item= C[N+](C)(C)CCO , readout=normalized growth) returns 1.01

// FC(F)(F)c1cccc(CSc2n[nH]c(=S)s2)c1 : normalized growth value = 0.763

normalized growth in this record for COc1cc(N)c(Cl)cc1C(=O)NC1CCN(Cc2ccccc2)CC1 : 0.978

Given item Cc1cc(C(C)(C)C)c(O)c(C(C)(C)C)c1 , the value recorded as its normalized growth is 0.898

Reported normalized growth for O=[N+]([O-])c1ccc(S(=O)(=O)c2ccc(Cl)cc2)cc1O was 0.814

Reported normalized growth of C=C1SC(=Nc2cccc(OC)c2)N(C(=O)C(c2ccccc2)C2CCCC2)C1(C)C (stereo not drawn) : 1.02

Documented normalized growth of Cn1ccnc1 : 1.01

For Oc1ccc2c3c1O[C@H]1[C@@H](O)CC[C@@]4(O)C(C2)N(CC2CCC2)CCC314 (stereo partly drawn) the compound record lists normalized growth as 1

The recorded normalized growth for CCOC(=O)OC(C)OC(=O)C1N2C(=O)C(NC(=O)[C@H](N)c3ccccc3)C2SC1(C)C (stereo partly drawn) is 0.967

Please fill in: normalized growth reported for Nc1ccccc1C(=O)CC(N)C(=O)O (stereo not drawn) = 0.995

GET /value?item= Fc1ccc(C(c2ccccc2)(c2ccccc2F)n2ccnc2)cc1 (stereo not drawn) &field=normalized growth returns 0.108

Looking up N=C(N)SCCN , I found its normalized growth recorded as 1.01

# normalized growth (compound: Nc1ccc(S(=O)(=O)Nc2cnc3ccccc3n2)cc1 ) is 0.978

For reference, reported normalized growth for COc1ccc(-c2n[nH]c(=S)n2-c2cccc(OC)c2)cc1 stands at 1

The compound CC(=O)O[C@H]1CC[C@@]2(C)C(CC[C@]3(C)C2CC=C2C4CC(C)(C)CC[C@]4(C)CC[C@]23C)C1(C)C (stereo partly drawn) showed normalized growth equal to 1.03

Form field normalized growth, entry O=C1C(O)=C(O)C(=O)C(O)=C1O : 0.96

The compound listed as CC(C)=CCCC1(C)C=Cc2c(O)c3c(c(CC=C(C)C)c2O1)OC12C(=CCCC1C(C)(C)O[C@@]2(C/C=C(\C)C(=O)O)C(=O)O)C3=O (stereo partly drawn) has a reported normalized growth of 0.936

Entry CC(C)(C)c1nccc(-c2nn(-c3ccc(F)cc3)ccc2=O)n1 , normalized growth reported as 0.995

Item: C/C=C(/C)C(=O)OC1CCC2(C)C3CCC4C5(O)CC(O)C6(O)C(CN7CC(C)CCC7C6(C)O)C5(O)CC42OC13O (stereo not drawn) | normalized growth: 0.943

Recorded result, O=C(Nc1ccc(Br)cc1Cl)C(Cl)(Cl)Cl , normalized growth: 0.963
